Target: EGFR^L858R/T790M/C797S (Homo sapiens, UniProt P00533, C797S/L858R/T790M)
Sequence (P00533 25-1210 T790M/C797S/L858R): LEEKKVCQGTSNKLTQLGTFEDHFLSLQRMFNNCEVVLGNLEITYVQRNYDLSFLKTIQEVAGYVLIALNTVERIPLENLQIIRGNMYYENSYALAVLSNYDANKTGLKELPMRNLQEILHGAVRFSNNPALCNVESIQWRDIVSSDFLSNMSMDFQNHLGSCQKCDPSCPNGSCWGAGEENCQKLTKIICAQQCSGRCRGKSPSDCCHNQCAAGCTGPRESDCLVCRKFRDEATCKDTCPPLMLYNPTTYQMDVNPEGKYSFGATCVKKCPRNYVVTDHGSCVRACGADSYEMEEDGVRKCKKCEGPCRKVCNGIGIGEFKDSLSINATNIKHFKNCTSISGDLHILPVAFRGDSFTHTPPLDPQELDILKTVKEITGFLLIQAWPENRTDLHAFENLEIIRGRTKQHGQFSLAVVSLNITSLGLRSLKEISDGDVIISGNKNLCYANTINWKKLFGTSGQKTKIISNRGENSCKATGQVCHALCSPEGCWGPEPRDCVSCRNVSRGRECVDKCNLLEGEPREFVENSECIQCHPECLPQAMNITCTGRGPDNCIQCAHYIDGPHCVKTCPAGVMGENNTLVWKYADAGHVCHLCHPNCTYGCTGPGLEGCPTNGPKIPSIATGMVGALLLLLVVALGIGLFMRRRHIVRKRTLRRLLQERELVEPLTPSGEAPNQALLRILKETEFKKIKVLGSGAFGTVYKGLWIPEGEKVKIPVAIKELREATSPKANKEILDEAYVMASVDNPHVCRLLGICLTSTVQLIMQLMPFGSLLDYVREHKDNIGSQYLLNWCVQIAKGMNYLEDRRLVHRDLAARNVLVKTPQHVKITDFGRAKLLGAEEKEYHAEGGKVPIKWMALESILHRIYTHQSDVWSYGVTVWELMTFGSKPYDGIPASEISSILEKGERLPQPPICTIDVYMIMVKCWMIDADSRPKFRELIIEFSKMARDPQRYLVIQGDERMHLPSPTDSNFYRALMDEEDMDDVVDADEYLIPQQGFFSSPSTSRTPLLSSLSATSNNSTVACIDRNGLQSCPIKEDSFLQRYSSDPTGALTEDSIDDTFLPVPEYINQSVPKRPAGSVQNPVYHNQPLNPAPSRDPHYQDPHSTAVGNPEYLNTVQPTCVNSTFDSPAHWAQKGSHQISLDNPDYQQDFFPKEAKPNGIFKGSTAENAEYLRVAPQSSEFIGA
Assay: ELISA kinase activity inhibition, EGFR L858R/T790M/C797S
Type: biochemical
Details: ATP 5 μM, read-out: The average IC50 value (nM) for inhibiting the activity of different tyrosine kinases, EGFR^L858R/T790M/C797S
Recorded IC50 values for a group of compounds are listed next.

CCS(=O)(=O)n1cc2c3ccc(cc31)OCCCn1cc(cn1)-c1cc(cc(CC(C)C)c1N1CCOCC1)Nc1ncc(Cl)c-2n1 [HC90032]
343 nM
CCS(=O)(=O)n1cc2c3ccc(cc31)OCC(C)Cn1cc(cn1)-c1cc(c(OC)cc1N1CCOCC1)Nc1nccc-2n1 (centres unmarked) [WQX-1-80]
53.2 nM
CCS(=O)(=O)n1cc2c3ccc(cc31)OCCCn1cc(cn1)-c1cc(c(OC)cc1N1CCC(N3CCN(C)CC3)CC1)Nc1nccc-2n1 [HC9594]
2.2 nM
CCS(=O)(=O)n1cc2c3ccc(cc31)OCCCCn1cc(cn1)-c1cc(ccc1N1CCOCC1)Nc1ncc(Cl)c-2n1 [HC8714]
9.3 nM
CCS(=O)(=O)n1cc2c3ccc(cc31)OCCCn1cc(cn1)-c1cc(c(OC)cc1N1CCOC(C)C1)Nc1nccc-2n1 (centres unmarked) [WQX-2-43]
57.8 nM
CCS(=O)(=O)n1cc2c3ccc(cc31)OCCCn1cc(cn1)-c1cc(c(OC)cc1N1CCN(C)CC1)Nc1nccc-2n1 [HC9592]
1.4 nM
CCS(=O)(=O)n1cc2c3ccc(cc31)OCC1(CC1)Cn1cc(cn1)-c1cc(c(OC)cc1N1CCOCC1)Nc1nccc-2n1 [WQX-1-87]
63.3 nM
CCS(=O)(=O)n1cc2c3ccc(cc31)OCCCn1cc(cn1)-c1cc(ccc1N1CCOCC1)Nc1nccc-2n1 [HC950]
0.4 nM
CCS(=O)(=O)n1cc2c3ccc(cc31)OCCCn1cc(cn1)-c1cc(cc(CCC(C)(C)C)c1N1CCOCC1)Nc1ncc(Cl)c-2n1 [HC90042]
> 1000 nM
Cc1cc(N2CCOCC2)c2cc1Nc1ncc(Cl)c(n1)-c1c[nH]c3cc(ccc13)OCCCn1cc-2cn1 [HC8990]
1 nM

Prompt: Return reported IC50; argument: CCS(=O)(=O)n1cc2c3ccc(cc31)OCCCn1cc(cn1)-c1cc(c(C)cc1N1CCOCC1)Nc1nccc-2n1 [HC950M]
Response: 1.9 nM

Prompt: Item under review: CCc1cc(N2CCOCC2)c2cc1Nc1nccc(n1)-c1cn(S(=O)(=O)CC)c3cc(ccc13)OCCCn1ccc-2n1 [FBH-3-47] . Reported IC50?
Response: 54.8 nM

Prompt: Returns the measured IC50 for the input compound. Input: CCS(=O)(=O)n1cc2c3ccc(cc31)OCCCn1cc(cn1)-c1cc(cc(C=C(C)C)c1N1CCOCC1)Nc1ncc(Cl)c-2n1 [HC9003]
Response: 69.7 nM

Prompt: I am curious: what IC50 value has been reported for CCS(=O)(=O)n1cc2c3ccc(cc31)OCCCn1cc(cn1)-c1cc(c(C)cc1N1CCOCC1)Nc1ncc(Cl)c-2n1 [HC916] ?
Response: 167 nM

* * *

Test: Pharmacokinetic parameters in rats
Type: in vivo
Details: male, Sprague-Dawley, plasma; rat, IV 1 mg/kg
PROPERTY_NAME: half-life (h)
Give your result in h as a bare value.

CCS(=O)(=O)n1cc2c3ccc(cc31)OCCCn1cc(cn1)-c1cc(c(OC)cc1N1CCOCC1)Nc1nccc-2n1 [HC9591]
7.1

Prompt: Param item = CCS(=O)(=O)n1cc2c3ccc(cc31)OCCCCCCOc1cc(c(C)cc1N1CCOCC1)Nc1ncc(Cl)c-2n1 [reference compound] ; retrieve measured half-life.
Response: 1.35

* * *

Assay: Pharmacokinetic parameters in rats
Type: in vivo
Details: male, Sprague-Dawley, plasma; rat, IV 1 mg/kg
Procedure: Sprague-Dawley rats (males, 3 per group), weighing 180 g to 220 g, were administered test compounds intravenously and orally at doses of 1 mg/kg and 5 mg/kg, respectively. The compounds were dissolved in a mixed solvent (5% DMSO+10% Solutol+85% PBS) for intravenous injection. 0.5% CMC-Na solution (800 cps to 1200 cps) was used as a suspension agent for oral administration. […]
PROPERTY_NAME: Cmax (ng/mL)
Answer format: numeric, ng/mL implied, no suffix.

CCS(=O)(=O)n1cc2c3ccc(cc31)OCCCCCCOc1cc(c(C)cc1N1CCOCC1)Nc1ncc(Cl)c-2n1 [reference compound]
2420

Shift focus to the following entry.
Prompt: Consider the compound shown here: CCS(=O)(=O)n1cc2c3ccc(cc31)OCCCn1cc(cn1)-c1cc(c(OC)cc1N1CCOCC1)Nc1nccc-2n1 What is its recorded Cmax?
Response: 1570

* * *

Entries and their GI50
Molecular target: BaF3-EGFR (19del/T790M/C797S) (Homo sapiens, UniProt P00533, T790M/C797S, cells depend on it, form not given)
Sequence (P00533 with tags, fused parts or gaps DEL746-750/T790M/C797S, form open): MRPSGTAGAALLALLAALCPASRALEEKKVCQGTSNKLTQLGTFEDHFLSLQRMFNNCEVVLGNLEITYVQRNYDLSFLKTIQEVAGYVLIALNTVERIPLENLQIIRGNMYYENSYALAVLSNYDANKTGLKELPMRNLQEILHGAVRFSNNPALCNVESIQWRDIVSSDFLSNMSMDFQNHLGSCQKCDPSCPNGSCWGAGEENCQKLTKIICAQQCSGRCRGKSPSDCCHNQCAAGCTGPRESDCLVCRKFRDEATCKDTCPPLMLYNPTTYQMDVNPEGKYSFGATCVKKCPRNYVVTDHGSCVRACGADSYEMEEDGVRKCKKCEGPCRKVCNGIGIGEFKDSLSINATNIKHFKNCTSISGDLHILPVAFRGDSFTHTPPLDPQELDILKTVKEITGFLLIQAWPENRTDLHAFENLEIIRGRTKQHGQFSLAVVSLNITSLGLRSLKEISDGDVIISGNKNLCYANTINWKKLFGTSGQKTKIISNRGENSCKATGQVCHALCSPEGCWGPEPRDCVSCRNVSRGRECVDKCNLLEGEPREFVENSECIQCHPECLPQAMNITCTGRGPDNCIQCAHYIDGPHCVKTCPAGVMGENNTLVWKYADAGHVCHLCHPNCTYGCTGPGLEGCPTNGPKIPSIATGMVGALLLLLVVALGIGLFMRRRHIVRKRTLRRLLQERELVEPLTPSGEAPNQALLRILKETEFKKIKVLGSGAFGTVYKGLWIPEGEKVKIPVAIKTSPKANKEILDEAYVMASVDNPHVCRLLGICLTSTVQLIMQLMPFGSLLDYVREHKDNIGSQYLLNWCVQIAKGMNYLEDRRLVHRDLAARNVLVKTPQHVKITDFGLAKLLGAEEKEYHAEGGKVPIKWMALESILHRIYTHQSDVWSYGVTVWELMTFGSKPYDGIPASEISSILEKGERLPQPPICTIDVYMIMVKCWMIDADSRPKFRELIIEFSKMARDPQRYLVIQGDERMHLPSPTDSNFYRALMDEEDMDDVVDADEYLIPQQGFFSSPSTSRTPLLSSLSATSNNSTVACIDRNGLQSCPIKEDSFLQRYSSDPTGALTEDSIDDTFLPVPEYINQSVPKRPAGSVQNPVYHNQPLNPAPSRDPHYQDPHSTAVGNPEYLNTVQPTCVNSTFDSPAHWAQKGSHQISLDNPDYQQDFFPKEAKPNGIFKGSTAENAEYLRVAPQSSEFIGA
Assay: CCK-8 cell proliferation, BaF3-EGFR(19del/T790M/C797S)
Format: cell-based
Details: CCK-8, 72 hours; read-out: Average value of IC50 of inhibition against EGFR-mutant cells growth, BaF3-EGFR (19del/T790M/C797S)
Lab book: enter the figure in nM, no units written.

Prompt: I am curious: what GI50 value has been reported for CCS(=O)(=O)n1cc2c3ccc(cc31)OCCCn1cc(cn1)-c1cc(ccc1N1CCOCC1)Nc1ncc(Cl)c-2n1 ?
Response: 70

Prompt: Any idea what GI50 was measured for CCS(=O)(=O)n1cc2c3ccc(cc31)OCCCCn1cc(cn1)-c1cc(ccc1N1CCOCC1)Nc1ncc(Cl)c-2n1 ?
Response: 91

Prompt: Which GI50 is reported for this compound? CCS(=O)(=O)n1cc2c3ccc(cc31)OCC(C)Cn1cc(cn1)-c1cc(c(OC)cc1N1CCOCC1)Nc1nccc-2n1 (stereo not shown)
Response: 311

Prompt: Which GI50 is reported for this compound? COc1cc(N2CCC(N3CCN(C)CC3)CC2)ccc1Nc1ncc(Cl)c(Nc2ccccc2P(C)(C)=O)n1 [Brigatinib, reference compound]
Response: 221

Prompt: What does the data say about its GI50? Entry: CCS(=O)(=O)n1cc2c3ccc(cc31)OC(C)CCn1cc(cn1)-c1cc(c(OC)cc1N1CCOCC1)Nc1nccc-2n1 (stereo not shown)
Response: 465

Prompt: Endpoint output: GI50 of CCc1cc(N2CCOCC2)c2cc1Nc1nccc(n1)-c1cn(S(=O)(=O)CC)c3cc(ccc13)OCCCn1ccc-2n1 . Value?
Response: 229

Prompt: Requested field: GI50. Item: CCS(=O)(=O)n1cc2c3ccc(cc31)OCCCn1cc(cn1)-c1cc(c(OC)cc1N1CCOCC1)Nc1nccc-2n1
Response: 189

Prompt: Any idea what GI50 was measured for CCS(=O)(=O)n1cc2c3ccc(cc31)OCCCn1cc(cn1)-c1cc(c(C)cc1N1CCN(C)CC1)Nc1ncc(Cl)c-2n1 ?
Response: 472

Prompt: I am curious: what GI50 value has been reported for CCS(=O)(=O)n1cc2c3ccc(cc31)OCCCn1cc(cn1)-c1cc(c(OC)cc1N1CCC(N3CCN(C)CC3)CC1)Nc1nccc-2n1 ?
Response: 1220

Prompt: Requested read-out: GI50. Entry: CCOc1cc(N2CCOCC2)c2cc1Nc1nccc(n1)-c1cn(S(=O)(=O)CC)c3cc(ccc13)OCCCn1cc-2cn1
Response: 371

Prompt: Which GI50 value is on record for CCS(=O)(=O)n1cc2c3ccc(cc31)OCCCn1cc(cn1)-c1cc(c(C)cc1N1CCOCC1)Nc1nccc-2n1 [HC950M] ?
Response: 86

Prompt: Can you look up the measured GI50 of Cc1cc(N2CCOCC2)c2cc1Nc1ncc(Cl)c(n1)-c1c[nH]c3cc(ccc13)OCCCn1cc-2cn1 for me?
Response: 429

Prompt: Given CCS(=O)(=O)n1cc2c3ccc(cc31)OCCCn1cc(cn1)-c1cc(ccc1N1CCOCC1)Nc1nccc-2n1 , state its recorded GI50.
Response: 170

* * *

Biological target: EGFR^19del/T790M/C797S (Homo sapiens, UniProt P00533, T790M/C797S, form not given)
Construct: fused on or other part: Probably a GST tag on the cytoplasmic fragment, as in the vendor's product
Test: ELISA kinase activity inhibition, EGFR 19del/T790M/C797S
Assay type: biochemical
Conditions: ATP 5 μM, read-out: The average IC50 value (nM) for inhibiting the activity of different tyrosine kinases, EGFR^19del/T790M/C797S
IC50 overview
State the value, then name its unit.

Prompt: Observed IC50 on EGFR^19del/T790M/C797S (Homo sapiens, UniProt P00533, T790M/C797S, form not given) for CCS(=O)(=O)n1cc2c3ccc(cc31)OCCCn1ccc(n1)-c1cc(c(C(C)C)cc1N1CCOCC1)Nc1nccc-2n1 , please.
Response: 8.2 nM

Provenance of the data: patent US20260184725A1
